Molecular target: T1, human NPR1 extracellular domain expressed with a C-terminal mouse IgG2a (hNPR1-mFc) (human)
T1 construct: also called hNPR1-Fc; human NPR1 dimer
T1 chain: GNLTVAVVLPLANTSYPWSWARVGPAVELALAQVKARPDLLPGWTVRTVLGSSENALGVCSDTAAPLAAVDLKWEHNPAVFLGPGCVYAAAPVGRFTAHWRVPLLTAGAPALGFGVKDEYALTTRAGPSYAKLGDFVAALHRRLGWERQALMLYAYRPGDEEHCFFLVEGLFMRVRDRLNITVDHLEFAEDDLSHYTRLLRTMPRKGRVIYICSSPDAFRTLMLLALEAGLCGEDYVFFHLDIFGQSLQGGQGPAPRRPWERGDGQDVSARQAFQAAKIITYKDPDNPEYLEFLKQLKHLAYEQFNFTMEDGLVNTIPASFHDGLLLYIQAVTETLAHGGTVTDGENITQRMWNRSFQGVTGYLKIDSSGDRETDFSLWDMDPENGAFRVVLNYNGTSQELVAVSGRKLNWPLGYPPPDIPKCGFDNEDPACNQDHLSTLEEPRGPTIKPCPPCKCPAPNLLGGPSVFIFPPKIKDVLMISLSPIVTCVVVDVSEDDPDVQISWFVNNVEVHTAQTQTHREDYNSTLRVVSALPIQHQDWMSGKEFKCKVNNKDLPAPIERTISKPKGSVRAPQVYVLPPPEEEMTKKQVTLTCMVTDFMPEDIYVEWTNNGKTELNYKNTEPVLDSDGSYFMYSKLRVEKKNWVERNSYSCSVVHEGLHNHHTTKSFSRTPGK
Experiment: SPR, mAb captured, 25 C

binder	unit.of.measure	t½
mAb22035 (antibody, V domains shown) VH: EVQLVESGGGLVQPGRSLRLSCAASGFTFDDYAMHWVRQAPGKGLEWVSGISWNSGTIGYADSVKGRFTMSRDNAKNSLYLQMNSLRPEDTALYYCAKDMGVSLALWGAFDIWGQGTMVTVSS VL: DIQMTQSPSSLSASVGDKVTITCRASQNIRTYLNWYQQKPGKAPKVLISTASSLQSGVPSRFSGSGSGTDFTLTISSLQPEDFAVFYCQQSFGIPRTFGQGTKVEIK	h	2.35
mAb22033 (antibody, V domains shown) VH: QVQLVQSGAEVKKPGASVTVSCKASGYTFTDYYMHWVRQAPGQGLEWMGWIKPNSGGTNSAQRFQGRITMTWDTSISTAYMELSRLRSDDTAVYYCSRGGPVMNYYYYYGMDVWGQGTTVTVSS VL: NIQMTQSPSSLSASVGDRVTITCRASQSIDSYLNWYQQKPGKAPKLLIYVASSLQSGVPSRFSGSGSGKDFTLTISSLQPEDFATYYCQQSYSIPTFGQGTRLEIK	h	3.02
mAb25479 (antibody, V domains shown) VH: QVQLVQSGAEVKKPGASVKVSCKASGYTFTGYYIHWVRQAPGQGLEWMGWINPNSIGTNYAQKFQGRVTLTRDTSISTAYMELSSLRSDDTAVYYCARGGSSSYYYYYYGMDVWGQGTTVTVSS VL: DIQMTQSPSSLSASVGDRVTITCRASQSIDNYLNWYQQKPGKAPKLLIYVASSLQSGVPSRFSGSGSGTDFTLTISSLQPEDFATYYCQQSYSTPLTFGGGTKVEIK	h	0.227

Data credit: patent US20240309103A1
